target: T1, human MSLN-R3 on HEK293T-hMSLN-R3 recombinant cells (human, UniProt Q13421 487-606); test: FACS, HEK293T-hMSLN-R3 cells
T1 construct: the C-terminal limit is uncertain; also called human MSLN-R3 membrane protein
T1 sequence (Q13421 495-614): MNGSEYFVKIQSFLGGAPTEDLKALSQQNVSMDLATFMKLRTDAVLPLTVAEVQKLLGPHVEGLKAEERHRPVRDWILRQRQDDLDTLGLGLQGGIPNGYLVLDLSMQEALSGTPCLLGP
This section presents binders with their documented pEC50 values.
// pEC50: -log10(molar conc.)

Solved entries (count: 2):
BINDER	pEC50
F7.44.20-H1 (scFv, not shown: small tags and cut ends, also called S009-F7.44.20 humanized antibody VH1 + VL1) scFv: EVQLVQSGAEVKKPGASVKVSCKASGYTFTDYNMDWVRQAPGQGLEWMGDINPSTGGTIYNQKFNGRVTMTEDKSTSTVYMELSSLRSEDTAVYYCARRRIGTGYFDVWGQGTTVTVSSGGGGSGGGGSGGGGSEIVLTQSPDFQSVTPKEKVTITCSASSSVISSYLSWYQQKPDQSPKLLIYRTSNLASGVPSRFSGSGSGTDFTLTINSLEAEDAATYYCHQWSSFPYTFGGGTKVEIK	8.76
F7.44.20-H11 (scFv, not shown: small tags and cut ends, also called S009-F7.44.20 humanized antibody VH2 + VL3) scFv: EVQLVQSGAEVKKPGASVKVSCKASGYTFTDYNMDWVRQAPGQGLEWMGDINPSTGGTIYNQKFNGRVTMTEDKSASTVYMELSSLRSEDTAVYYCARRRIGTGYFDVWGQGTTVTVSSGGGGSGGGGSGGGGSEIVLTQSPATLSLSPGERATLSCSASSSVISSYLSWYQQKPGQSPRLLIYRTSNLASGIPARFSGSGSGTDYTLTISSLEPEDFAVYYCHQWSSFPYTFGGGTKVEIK	8.94

Would you mind telling me what pEC50 value was observed for F7.44.20 (scFv) EVQLQQSGPELVKPGASVKIPCKASGYTFTDYNMDWVKQSHGKSLEWIGDINPSTGGTIYNQKFNGKATLTEDKSASTVYMEFRSLTSDDTAVYYCARRRIGTGYFDVWGTGTTVTVSSGGGGSGGGGSGGGGSQIVLTQSPALMSASPGEKVTLTCSASSSVISSYLSWYQQKPGSSPKLLIYRTSNLASGVPARFSGSGSGTSYSLTISSMEAEDAASYFCHQWSSFPYTFGGGTKLEIK ?
8.90

And then F7.44.20-H6 (scFv, not shown: small tags and cut ends, also called S009-F7.44.20 humanized antibody VH1a + VL2) scFv: EVQLVQSGAEVKKPGASVKVSCKASGYTFTDYNMDWVRQAPGQGLEWMGDINPSTGGTIYNQKFQGRVTMTEDKSTSTVYMELSSLRSEDTAVYYCARRRIGTGYFDVWGQGTTVTVSSGGGGSGGGGSGGGGSEIVLTQSPDFQSVTPKEKVTITCSASSSVISSYLSWYQQKPDQSPKLLIYRTSNLASGVPSRFSGSGSGTDYTLTINSLEAEDAATYYCHQWSSFPYTFGGGTKVEIK , what is it?
8.46
